assay: Cytotoxicity against human HeLaS3 cells incubated for 3 days by XTT assay; type: functional, cell-based; conditions: HeLa S3, 72 h
Field: pIC50. Provide a value for each of the compounds that follow.
Numbers only, as −log10 of the molar value.

Look at each compound and report its pIC50.
1. C[C@@]1(O)[C@H](O)[C@@H](CO)O[C@H]1n1cc(I)c2c(N)ncnc21
2. Nc1ncnc2c1c(-c1cccs1)cn2[C@@H]1O[C@H](CO)[C@@H](O)[C@@H]1F
3. Nc1ncnc2c1c(-c1ccoc1)cn2[C@@H]1O[C@H](CO)[C@@H](O)[C@@H]1O
4. C#Cc1cn([C@@H]2O[C@H](CO)[C@@H](O)[C@@H]2F)c2ncnc(N)c12
5. Nc1ncnc2c1c(-c1cccs1)cn2[C@@H]1O[C@H](CO)[C@@H](O)[C@@H]1O
6. Nc1ncnc2c1c(-c1ccco1)cn2[C@@H]1O[C@H](CO)[C@@H](O)[C@@H]1O
7. Nc1ncnc2c1c(-c1ccsc1)cn2[C@@H]1O[C@H](CO)[C@@H](O)[C@@H]1O
8. C#Cc1cn([C@@H]2O[C@H](CO)[C@@H](O)[C@@H]2O)c2ncnc(N)c12

1. 5.12
2. 5.25
3. 5.08
4. 6.66
5. 5.27
6. 5.12
7. 5.15
8. 5.42

---

test system: HepG2; assay: Cytotoxicity against human HepG2 cells incubated for 3 days by XTT assay; assay type: functional, cell-based; settings: HepG2, 72 h
Measure Name: IC50 (µM)
Give bare numbers, in µM.

Answered examples (4):
Cpd Smiles	Measure Name	Experimental Result
Nc1ncnc2c1c(-c1ccco1)cn2[C@@H]1O[C@H](CO)[C@@H](O)[C@@H]1O	IC50	6.62
Nc1ncnc2c1c(-c1cccs1)cn2[C@@H]1O[C@H](CO)[C@@H](O)[C@@H]1O	IC50	12.2
Nc1ncnc2c1c(-c1ccoc1)cn2[C@@H]1O[C@H](CO)[C@@H](O)[C@@H]1O	IC50	6.1
C#Cc1cn([C@@H]2O[C@H](CO)[C@@H](O)[C@@H]2O)c2ncnc(N)c12	IC50	9.86

Value of IC50 reported for the molecule `Nc1ncnc2c1c(I)cn2[C@@H]1O[C@H](CO)[C@@H](O)[C@@H]1O` is 6.12

---

Field: IC50. Provide a value for each of the compounds that follow.
tested on: CCRF-CEM; test: Cytotoxicity against human CCRF-CEM cells incubated for 3 days by XTT assay; type: functional, cell-based; settings: 72 h
One number for each entry, in µM.

Cpd Smiles	IC50 [µM]
Nc1ncnc2c1c(-c1ccoc1)cn2[C@@H]1O[C@H](CO)[C@@H](O)[C@@H]1O	4.67
C[C@@]1(O)[C@H](O)[C@@H](CO)O[C@H]1n1cc(-c2cc3ccccc3o2)c2c(N)ncnc21	7.81
Nc1ncnc2c1c(-c1cnn[nH]1)cn2[C@@H]1O[C@H](CO)[C@@H](O)[C@@H]1F	3.45

Attention now turns to another entry.
Entry `Nc1ncnc2c1c(-c1cccs1)cn2[C@@H]1O[C@H](CO)[C@@H](O)[C@@H]1F` : IC50 on CCRF-CEM = 7.5

---

assay: Toxicity against human HuH7 cells incubated for 3 days by CellTiter 96 AQueous One Solution cell proliferation assay; assay type: cell-based, Huh-7
Field: CC50 at 72 h. Provide a value for each of the compounds that follow.

Answered examples (5):
Cpd Smiles	Experimental Result
Nc1ncnc2c1c(-c1cccs1)cn2[C@@H]1O[C@H](CO)[C@@H](O)[C@@H]1O	> 44 µM
C[C@@]1(O)[C@H](O)[C@@H](CO)O[C@H]1n1cc(-c2ccco2)c2c(N)ncnc21	49.6 µM
Nc1ncnc2c1c(-c1ccco1)cn2[C@@H]1O[C@H](CO)[C@@H](O)[C@@H]1O	> 44 µM
C[C@@]1(O)[C@H](O)[C@@H](CO)O[C@H]1n1cc(-c2cccc3ccccc23)c2c(N)ncnc21	> 44 µM
C#Cc1cn([C@@H]2O[C@H](CO)[C@@H](O)[C@@H]2O)c2ncnc(N)c12	17.4 µM

Look at each compound and report its CC50 at 72 h.
1. Nc1ncnc2c1c(-c1ccoc1)cn2[C@H]1C[C@H](O)[C@@H](CO)O1
2. Nc1ncnc2c1c(-c1cn[nH]c1)cn2[C@@H]1O[C@H](CO)[C@@H](O)[C@@H]1F
3. Nc1ncnc2c1c(-c1ccccc1)cn2[C@@H]1O[C@H](CO)[C@@H](O)[C@@H]1F
4. Nc1ncnc2c1c(-c1ccsc1)cn2[C@@H]1O[C@H](CO)[C@@H](O)[C@@H]1O
5. C[C@@]1(O)[C@H](O)[C@@H](CO)O[C@H]1n1cc(-c2ccsc2)c2c(N)ncnc21

["> 44 µM", "> 44 µM", "> 44 µM", "> 44 µM", "> 44 µM"]

Look at each compound and report its CC50 at 72 h.
1. Nc1ncnc2c1c(-c1ccco1)cn2[C@@H]1O[C@H](CO)[C@@H](O)[C@@H]1F
2. Nc1ncnc2c1c(-c1ccsc1)cn2[C@@H]1O[C@H](CO)[C@@H](O)[C@@H]1F
3. Nc1ncnc2c1c(-c1cccs1)cn2[C@@H]1O[C@H](CO)[C@@H](O)[C@@H]1F
4. C[C@@]1(O)[C@H](O)[C@@H](CO)O[C@H]1n1cc(-c2ccc3ccccc3c2)c2c(N)ncnc21
5. Nc1ncnc2c1c(-c1ccoc1)cn2[C@@H]1O[C@H](CO)[C@@H](O)[C@@H]1O
6. Nc1ncnc2c1c(-c1ccco1)cn2[C@H]1C[C@H](O)[C@@H](CO)O1
7. Nc1ncnc2c1c(I)cn2[C@@H]1O[C@H](CO)[C@@H](O)[C@@H]1O

> 44 µM
24.4 µM
42.9 µM
20.1 µM
> 44 µM
> 44 µM
9.97 µM

---

assay: Selectivity index, ratio of CC50 for human HuH7 cells to EC50 for Hepatitis C virus subtype 1a replicons; format: toxicity, cell-based, Huh-7; settings: read-out: Ratio CC50/EC50
Measure Name: selectivity ratio

Answered examples (6):
Cpd Smiles	selectivity ratio
Nc1ncnc2c1c(-c1cccs1)cn2[C@@H]1O[C@H](CO)[C@@H](O)[C@@H]1F	< 10
C[C@@]1(O)[C@H](O)[C@@H](CO)O[C@H]1n1cc(I)c2c(N)ncnc21	65
Nc1ncnc2c1c(-c1ccoc1)cn2[C@@H]1O[C@H](CO)[C@@H](O)[C@@H]1O	< 10
Nc1ncnc2c1c(-c1ccccc1)cn2[C@@H]1O[C@H](CO)[C@@H](O)[C@@H]1F	< 10
C#Cc1cn([C@@H]2O[C@H](CO)[C@@H](O)[C@@H]2F)c2ncnc(N)c12	< 10
Nc1ncnc2c1c(-c1cn[nH]c1)cn2[C@@H]1O[C@H](CO)[C@@H](O)[C@@H]1F	< 10

Look at each compound and report its selectivity ratio.
1. Nc1ncnc2c1c(-c1ccco1)cn2[C@H]1C[C@H](O)[C@@H](CO)O1
2. Nc1ncnc2c1c(-c1cnn[nH]1)cn2[C@@H]1O[C@H](CO)[C@@H](O)[C@@H]1F
3. Nc1ncnc2c1c(-c1cccs1)cn2[C@H]1C[C@H](O)[C@@H](CO)O1
4. Nc1ncnc2c1c(-c1ccccc1)cn2[C@@H]1O[C@H](CO)[C@@H](O)[C@@H]1O
5. Nc1ncnc2c1c(-c1ccsc1)cn2[C@H]1C[C@H](O)[C@@H](CO)O1
6. C[C@@]1(O)[C@H](O)[C@@H](CO)O[C@H]1n1cc(-c2ccccc2)c2c(N)ncnc21
7. Nc1ncnc2c1c(-c1ccoc1)cn2[C@H]1C[C@H](O)[C@@H](CO)O1
8. C[C@@]1(O)[C@H](O)[C@@H](CO)O[C@H]1n1cc(-c2cc3ccccc3o2)c2c(N)ncnc21

["< 10", "< 10", "< 10", "< 10", "< 10", "< 10", "< 10", "< 10"]

---

Field: pEC50. Provide a value for each of the compounds that follow.
system: Hepatitis C virus; assay: Antiviral activity against Hepatitis C virus subtype 1a replicons infected in human HuH7 cells assessed as reduction in viral RNA levels by Rt-PCR; format: functional, organism-based, Hepacivirus hominis; details: Huh-7
Give bare numbers, as −log10 of the molar value.

Answered examples (3):
Cpd Smiles	System Under Test	pEC50
Nc1ncnc2c1c(-c1cn[nH]c1)cn2[C@@H]1O[C@H](CO)[C@@H](O)[C@@H]1F	Hepatitis C virus	4.65
Nc1ncnc2c1c(-c1ccoc1)cn2[C@@H]1O[C@H](CO)[C@@H](O)[C@@H]1F	Hepatitis C virus	4.43
C[C@@]1(O)[C@H](O)[C@@H](CO)O[C@H]1n1cc(I)c2c(N)ncnc21	Hepatitis C virus	6.43

Attention now turns to another entry.
Value of pEC50 reported for the compound `Nc1ncnc2c1c(-c1cccs1)cn2[C@@H]1O[C@H](CO)[C@@H](O)[C@@H]1O` is 4.45
